Examples of compounds with documented ED50 follow.
Tested on: arterial pressure
Assay: Norepinephrine-induced arterial hyperpressure in anesthetized rabbits
Format: in vivo
Settings: Oryctolagus cuniculus, iv, norepinephrine i.v., 50% inhibition of increase in arterial pressure, read-out: Arterial pressure ID50
Where a name gives a salt, the structure may show the parent alone.
experimental readout: ED50

1. CCCOc1ccccc1N1CCN(CCOc2cc(C)ccc2C(C)C)CC1	5 mg/kg
2. Cc1ccc(C(C)C)c(OCCN2CCN(c3ccccc3OC(C)C)CC2)c1	1.64 mg/kg
3. Cc1ccc(C(C)C)c(OCCN2CCN(c3ccccc3O)CC2)c1	19 mg/kg
4. CCOc1ccccc1N1CCN(CCOc2cc(C)ccc2C(C)C)CC1 [B 1178, dihydrochloride]	3.9 mg/kg

---

Biological target: postsynaptic alpha-adrenergic receptors (Rattus norvegicus, UniProt P43140)
Construct: contraction of the isolated vas deferens; from tissue; host or cells: isolated rat vas deferens
Sequence (P43140 whole entry): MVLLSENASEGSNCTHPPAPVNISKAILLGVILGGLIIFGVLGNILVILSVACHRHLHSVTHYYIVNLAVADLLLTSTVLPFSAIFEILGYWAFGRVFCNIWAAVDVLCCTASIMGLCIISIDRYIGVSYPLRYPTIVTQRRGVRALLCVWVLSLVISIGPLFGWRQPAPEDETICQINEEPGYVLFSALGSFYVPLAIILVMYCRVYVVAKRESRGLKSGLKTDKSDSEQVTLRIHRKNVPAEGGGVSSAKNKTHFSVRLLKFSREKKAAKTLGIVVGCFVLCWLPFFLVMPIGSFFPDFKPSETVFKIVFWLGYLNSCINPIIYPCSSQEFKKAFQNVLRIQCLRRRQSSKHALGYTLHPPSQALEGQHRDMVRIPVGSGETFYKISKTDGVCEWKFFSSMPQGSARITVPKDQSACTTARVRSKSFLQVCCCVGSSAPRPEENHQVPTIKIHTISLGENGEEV
Test: Alpha-blocking activity on isolated rat vas deferens
Assay type: cell-based
Conditions: norepinephrine contraction, -log of product concentration at which norepinephrine concentration must be doubled, read-out: pA2 (converted)
Structures can show the parent of a compound that is named as a salt.
experimental readout: Kb

1. CCOc1ccccc1N1CCN(CCOc2cc(C)ccc2C(C)C)CC1 [B 1178, dihydrochloride]	0.0724 µM
2. Cc1ccc(C(C)C)c(OCCN2CCN(c3ccc(F)cc3)CC2)c1 [B.1055, dihydrochloride]	0.468 µM
3. CCOc1cccc(N2CCN(CCOc3cc(C)ccc3C(C)C)CC2)c1 [B.1204]	1 µM
4. COc1ccccc1N1CCN(CCOc2cc(C)ccc2C(C)C)CC1 [B.1168, dihydrochloride]	0.195 µM
5. CCCCOc1ccccc1N1CCN(CCOc2cc(C)ccc2C(C)C)CC1 [B.1340]	> 1 µM
6. COc1ccc(OC)c(N2CCN(CCOc3cc(C)ccc3C(C)C)CC2)c1 [B.1387]	0.355 µM

---

Molecular target: postsynaptic alpha-adrenergic receptors (Rattus norvegicus)
Construct: contraction of the isolated vas deferens; from tissue; host or cells: isolated rat vas deferens
Assay: Alpha-blocking activity on isolated rat vas deferens
Type: cell-based
Conditions: norepinephrine contraction, -log of product concentration at which norepinephrine concentration must be doubled, read-out: pA2 (converted)
Where a name gives a salt, the structure may show the parent alone.
Kb reference
experimental readout: Kb (nM)

1) Cc1ccc(C(C)C)c(OCCN2CCN(c3ccccc3)CC2)c1 [B.1057, dihydrochloride]	398
2) Cc1ccc(C(C)C)c(OCCN2CCN(c3ccccc3O)CC2)c1	40.7
3) COc1cccc(N2CCN(CCOc3cc(C)ccc3C(C)C)CC2)c1 [B.1206, hydrochloride]	170
4) Cc1ccc(C(C)C)c(OCCN2CCN(c3ccccc3C)CC2)c1 [B.1213, hydrochloride]	1100
5) Cc1ccc(C(C)C)c(OCCN2CCN(c3ccccc3F)CC2)c1 [B.1261, hydrochloride]	363
6) COc1ccc(N2CCN(CCOc3cc(C)ccc3C(C)C)CC2)cc1 [B.1115, dihydrochloride]	288
7) Cc1ccc(C(C)C)c(OCCN2CCN(c3cccc(O)c3)CC2)c1	832
8) Cc1ccc(C(C)C)c(OCCN2CCN(c3ccccc3Cl)CC2)c1 [B 1299, hydrochloride]	347
9) Cc1ccc(C(C)C)c(OCCN2CCN(c3ccc(Cl)cc3)CC2)c1 [B.1191, dihydrochloride]	331
10) CC(=O)c1ccc(N2CCN(CCOc3cc(C)ccc3C(C)C)CC2)cc1 [B.1105, hydrochloride]	537
